biological target: Concanavalin-A (Canavalia ensiformis) (UniProt P02866); experiment: ConA small-molecule binders, primary screen, artefact control for SMM control protein annotation, biochemical, small-molecule microarray, Alexa647 label, 635 nm (AID 1127); settings: ConA-A647 binding fluorescence, higher = more signal;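 also: z combines 667 nm emission intensity with signal-to-noise across three replicate slides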
Sequence (P02866 whole entry, looked up): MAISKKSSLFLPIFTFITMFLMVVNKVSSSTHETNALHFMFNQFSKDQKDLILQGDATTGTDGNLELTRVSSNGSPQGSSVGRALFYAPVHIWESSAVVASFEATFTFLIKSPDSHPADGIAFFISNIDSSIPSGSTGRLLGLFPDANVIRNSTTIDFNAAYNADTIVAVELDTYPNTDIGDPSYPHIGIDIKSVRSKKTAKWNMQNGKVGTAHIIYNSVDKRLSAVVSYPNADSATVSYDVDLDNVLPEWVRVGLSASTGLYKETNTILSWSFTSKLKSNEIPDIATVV
quantity_name: composite z-score
Format: numeric value only, no unit, no commentary.

See these solved cases before continuing.
compound	quantity_name	quantitative_readout
CN1C(=O)C2C=CC(C(O)c3ccc(I)cc3)N(NC(=O)OC(C)(C)C)C2C1=O (centres undefined)	composite z-score	0.898
C=C(CCCC)C(=O)CC[C@@H](OC(C)=O)c1cccc(OCCO)c1	composite z-score	0.259
C#C[C@@H](CC)O[Si](C#Cc1ccc(Oc2ccccc2)cc1)(C(C)C)C(C)C	composite z-score	0.218

Record "C=CCOC(=O)[C@H]1[C@@H]2C(=O)O[C@@H](c3ccccc3)[C@@H](c3ccccc3)N2[C@@H](c2ccc(OCCOC(=O)[C@H]3C[C@H]4C(=O)N[C@@H](Cc5ccccc5)C(=O)N4[C@H]3c3ccc(O)cc3)cc2)[C@]12C(=O)Nc1ccccc12" , field composite z-score: 1.16

The compound listed as "O=C1O[C@@H](c2ccccc2)[C@@H](c2ccccc2)N2[C@@H](c3ccccc3OCCO)[C@]3(C(=O)Nc4ccc(C#CCCO)cc43)[C@@H](C(=O)O)[C@H]12" has a reported composite z-score of 1.15

Sample "CC(C)[C@@H](OCc1ccccc1)[C@H](C)C=NO[C@H](C)c1cn([C@H](CO)Cc2ccccc2)nn1" ; composite z-score observed: 0.392

The value of composite z-score measured for the compound "CC(C)CON=C1[C@H]2CCn3c(=O)n(-c4ccccc4)c(=O)n3[C@H]2[C@H](O)[C@@H]2O[C@H]12" turned out to be 0.0834

Entry under test: "COC(=O)[C@]1(CO)N=C(c2ccc(OCCCO)cc2)O[C@@H]1c1ccccc1N=[N+]=[N-]" . Its composite z-score was 0.545

Consider CCOC(=O)[C@H](Cc1ccccc1)NC(=O)CCC1CC(OC(=O)NCc2ccc3c(c2)OCO3)CC2(CCCC(COC(=O)NCc3ccccc3)O2)O1 (some centres undefined) . Its measured composite z-score is 0.915

For "O=C1[C@H]2[C@H]3[C@H](O)[C@H](O)CC(=NO[C@@H]4O[C@H](CO)[C@@H](O)[C@H](O)[C@H]4O)[C@H]3CC[C@H]2C(=O)N1C1CCCCC1" the compound record lists composite z-score as -0.316

Kindly note the recorded composite z-score for "O=C1[C@H]2[C@H]3[C@H](O)[C@H](O)CC(=NOC[C@@H](O)COCc4ccco4)[C@H]3CC[C@H]2C(=O)N1c1cccc(Oc2ccccc2)c1" , which is -0.785

----------
molecular target: Torsin-1A (Homo sapiens) (UniProt O14656); assay: torsin A binders from cell lysate, primary screen, small-molecule microarray, wild-type, 635/667 nm (AID 1149); details: COS7 hTOR1A-WT lysate, 635 nm fluorescence, higher = more signal
Sequence (O14656 whole entry, looked up): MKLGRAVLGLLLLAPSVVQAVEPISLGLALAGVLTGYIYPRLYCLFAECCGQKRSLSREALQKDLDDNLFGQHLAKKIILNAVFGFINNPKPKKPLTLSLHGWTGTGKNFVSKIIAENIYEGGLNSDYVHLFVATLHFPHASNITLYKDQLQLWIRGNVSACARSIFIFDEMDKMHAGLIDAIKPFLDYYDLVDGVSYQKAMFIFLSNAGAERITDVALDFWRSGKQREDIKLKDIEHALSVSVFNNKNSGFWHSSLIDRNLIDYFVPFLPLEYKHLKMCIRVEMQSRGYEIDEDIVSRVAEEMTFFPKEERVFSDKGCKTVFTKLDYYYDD
Measured composite z-score values are reported for all entries that follow.
Number only, no unit.

compound	experimental_system	composite z-score
CO[C@H]1COC(=O)[C@@H]2CCCN2C(=O)[C@@H](C)COC(=O)CC=C[C@@H]1C	Torsin-1A (Homo sapiens) (UniProt O14656)	1.24

Now examine the next entry.
Value of composite z-score reported for the compound "CCCNC(=O)[C@@H]1c2ccccc2C(=O)N(Cc2ccccc2Cl)[C@H]1c1ccc(CO)cc1" is 0.174

Source: PubChem BioAssay
